# TARGET_OR_TEST_SYSTEM: IL-6 (human) (UniProt P05231)
# Sequence (P05231 30-212): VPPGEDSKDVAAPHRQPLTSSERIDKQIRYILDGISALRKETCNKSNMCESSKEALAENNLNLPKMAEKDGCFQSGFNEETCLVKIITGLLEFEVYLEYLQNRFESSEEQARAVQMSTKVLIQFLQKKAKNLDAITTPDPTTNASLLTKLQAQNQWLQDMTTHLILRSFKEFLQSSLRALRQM
# REPORTED_CONDITIONS: 32 nt; six 2'-O-methyl; eight Bn-dU; one Pe-dU; one Nap-dU (position 12); Bn-dU at 7, 8, 14, 15, 22, 23, 27, 30 named in text; binding assay method and buffer not given in the …
TEST_READOUT: Kd (nM)
Give a bare numeral; the unit nM is implied.

Task item: Give a short answer stating reported Kd for GGCAGGUUUGGUAUUAACACGUUAAGUCGUGG [SL1025] .
Reply: 0.2
